# key: entry, value: Mass, dry, root, + % to control
System: rice (Diamant variety)
Test Description: Rice seed treatment with BHMPA salts: germinating power
Format: in vivo
Run Parameters: rice seeds; solution concentration 1 · 10^−6%
Description: Experimental versions—soaking seeds in BHMPA solutions and solutions of BHMPA Ca, Mg, Na, Co, Mn, Cu, and Zn salts at 1·10^−6-1·10^−12% concentrations (doses). The studies were conducted in laboratory in Petri dishes; seed bed—two layers of filter paper. […] Seed germination energy and rate were calculated in percent as an arithmetic mean of the four experimental results (germination energy on the 4th day, wheat germination on the 8th day, rice and corn germination—on the 7th day). […]
Please reply with the bare figure in % and do not write the unit itself.

compound="O.O.O=P([O-])(CO)CO.O=P([O-])(CO)CO.[Mn+2] [Mn-salt, Manganese BHMPA Salt]" value_measured=10

Prompt: Find the measured Mass, dry, root, + % to control of O=P([O-])(CO)CO.O=P([O-])(CO)CO.[Mg+2] [Mg-salt, Magnesium BHMPA Salt] and report it.
Completion: 4.5

Prompt: Find the measured Mass, dry, root, + % to control of O=P([O-])(CO)CO.[Na+] [Na-salt, Sodium BHMPA Salt] and report it.
Completion: 5

Prompt: Find the measured Mass, dry, root, + % to control of O.O.O=P([O-])(CO)CO.O=P([O-])(CO)CO.[Co+2] [Co-salt, Cobalt BHMPA Salt] and report it.
Completion: 12

Prompt: Find the measured Mass, dry, root, + % to control of O=P([O-])(CO)CO.O=P([O-])(CO)CO.[Ca+2] [Ca-salt, Calcium BHMPA Salt] and report it.
Completion: 12

Data provenance is patent US10781224B2.
